The measured values listed here are drawn from patent US7767659B2.

System: A-549
Experiment summary: cells
Condition notes: Homo sapiens, A549, 48 h, read-out: A549 LC50
Reported CC50 values are given for each entry in this list.

[
  {
    "Molecule": "C=CCOc1c(C)c2c(c3c1CC1[C@H]4c5c(cc(C)c(OC)c5OCOCCOC)C[C@@H]([C@H](C#N)N1[C@H]3CNC(=O)[C@H](CSCC1c3ccccc3-c3ccccc31)NC(=O)OC(C)(C)C)N4C)OCO2 (stereo partly drawn) [compound 70]",
    "CC50": "50600 nM"
  },
  {
    "Molecule": "COc1c(C)cc2c(c1O)[C@H]1N[C@@H](C2)[C@H](O)N2C1[C@@H]1SC[C@]3(NCCc4c3[nH]c3ccccc43)C(=O)OC[C@H]2c2c3c(c(C)c(OC(C)=O)c21)OCO3 (stereo partly drawn) [compound 63]",
    "CC50": "273 nM"
  },
  {
    "Molecule": "COc1c(C)cc2c(c1O)[C@H]1N[C@@H](C2)[C@H](C#N)N2C1[C@@H]1SC[C@]3(NCCc4c3[nH]c3ccc(C)cc43)C(=O)OC[C@H]2c2c3c(c(C)c(OC(C)=O)c21)OCO3 (stereo partly drawn) [compound 62]",
    "CC50": "334 nM"
  },
  {
    "Molecule": "C=CCN1[C@@H]2c3c(cc(C)c(OC)c3O)C[C@H]1[C@H](O)N1C2[C@@H]2SC[C@]3(NCCc4cc(O)c(OC)cc43)C(=O)OC[C@H]1c1c3c(c(C)c(OC(C)=O)c12)OCO3 (stereo partly drawn) [compound 67]",
    "CC50": "797 nM"
  },
  {
    "Molecule": "C=CCN1[C@@H]2c3c(cc(C)c(OC)c3O)C[C@H]1[C@H](O)N1C2[C@@H]2SCC(NC(C)=O)C(=O)OC[C@H]1c1c3c(c(C)c(OC(C)=O)c12)OCO3 (stereo partly drawn) [compound 41]",
    "CC50": "125 nM"
  },
  {
    "Molecule": "C=CCN1[C@@H]2c3c(cc(C)c(OC)c3O)C[C@H]1[C@H](C#N)N1C2[C@@H]2SC[C@]3(NCCc4c3[nH]c3ccc(O)cc43)C(=O)OC[C@H]1c1c3c(c(C)c(OC(C)=O)c12)OCO3 (stereo partly drawn) [compound 57]",
    "CC50": "1500 nM"
  },
  {
    "Molecule": "COc1c(C)cc2c(c1O)[C@H]1N[C@@H](C2)[C@H](O)N2C1[C@@H]1SCC(=O)C(=O)OC[C@H]2c2c3c(c(C)c(OC(C)=O)c21)OCO3 (stereo partly drawn) [compound 43]",
    "CC50": "148 nM"
  },
  {
    "Molecule": "COc1cc2c(cc1O)CCN[C@]21CS[C@@H]2c3c(OC(C)=O)c(C)c4c(c3[C@H](CNC1=O)N1C2[C@H]2c3c(cc(C)c(OC)c3O)C[C@@H]([C@@H]1C#N)N2C)OCO4 (stereo partly drawn) [compound 76]",
    "CC50": "4650 nM"
  }
]

CC50 recorded for this molecule, COc1c(C)cc2c(c1O)[C@H]1N[C@@H](C2)[C@H](C#N)N2C1[C@@H]1SCC(=O)C(=O)OC[C@H]2c2c3c(c(C)c(OC(C)=O)c21)OCO3 (stereo partly drawn) [compound 42] , is 2370 nM

Recorded result, COc1cc2c(cc1O)CCN[C@]21CS[C@@H]2c3c(OC(C)=O)c(C)c4c(c3[C@H](COC1=O)N1[C@@H]2[C@H]2c3c(cc(C)c(OC)c3O)C[C@@H]([C@@H]1O)N2C)OCO4 [Et-743, ecteinascidin 743, reference compound] , CC50: 12.1 nM

Per the records, this molecule ( COCCOCOc1c(OC)c(C)cc2c1[C@@H]1C3CC4(O)C(=O)C(C)=C5OCOC5=C4[C@H](CNC(=O)[C@H](CSCC4c5ccccc5-c5ccccc54)NC(=O)OC(C)(C)C)N3[C@@H](C#N)[C@H](C2)N1C (stereo partly drawn) [compound 72] ) has CC50 equal to 4150 nM
